Each entry below carries its recorded GTP binding activity.
- measuredOn: Ras-related protein Rab-2A (Canis lupus familiaris)
- assayInfo: Rab2 wt fluorescent GTP binding changes, either direction – biochemical, dog, bead-based flow cytometry, multiplex, primary screen (AID 760);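 note: 0% = beads with excess unlabeled GTP and 100% = no-compound control corrected for plate trend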
- experimentalSetup: GST-Rab2 wt beads, Bodipy-GTP binding, at 10 µM
The campaign covered roughly 190,000 compounds. About 360 (0.19%) were called active. Inconclusive results (about 2%) are left out. Many of the other results were omitted from the sample, so actives are more common in it than they were.
Quick reminder: number only, in %, skip the unit.

O=C1CCC(=O)N1c1ccc(NCCc2ccccc2F)c([N+](=O)[O-])c1 ... 101
CCOc1ccc(C(C)=O)cc1CSc1nnc(-c2ccncc2)n1CCOC ... 99
Cc1ccc(CSCC(N)C(=O)O)cc1 (configuration not stated) ... 97
Cc1ccc(SC(CC(=O)c2ccc(C(C)(C)C)cc2)C(=O)O)cc1 (configuration not stated) ... 78
CC1COc2ccccc2N1C(=O)c1cccnc1Cl (configuration not stated) ... 99

Give recorded GTP binding activity with Ras-related protein Rab-2A (Canis lupus familiaris) for the following compound: Cc1ccc(C(=O)CS(C)(=O)=O)cc1 104

What do you get for CCOC(=O)c1ccc(Nc2cc(C)nc3nc(C)nn23)cc1 ? 98

What do you get for N/C(=N\OC(=O)COc1ccc([N+](=O)[O-])cc1)c1ccc(Br)cc1 ? 98

What do you get for Cn1nnnc1SCC(=O)Nc1nc2ccccc2s1 ? 97

What do you get for CSCCNCc1cn(-c2ccc(F)cc2F)nc1-c1ccccc1C ? 100

What do you get for CN(CCC1CCOCC1)Cc1cn[nH]c1-c1ccc(-c2ccccc2)cc1 ? 96

What do you get for CCCOC1CCCN(Cc2cn(C)nc2-c2ccccc2F)C1 (configuration not stated) ? 96

* * *

- measuredOn: Ras-related protein Rab-2A (Canis lupus familiaris)
- assayInfo: Rab2 wt fluorescent GTP binding changes, either direction – biochemical, dog, bead-based flow cytometry, multiplex, primary screen (AID 760);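 note: 0% = beads with excess unlabeled GTP and 100% = no-compound control corrected for plate trend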
- experimentalSetup: GST-Rab2 wt beads, Bodipy-GTP binding, at 10 µM
The whole screen tested about 190,000 compounds, of which about 360 (0.19%) were called active. About 2% were inconclusive and are not listed.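 Rule for the calls: active = GTP binding activity at least 20 points away from 100%, either lowered or raised; inconclusive = signal likely due to the compound's own green fluorescence; inactive = the rest.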 This is one part of a sample in which actives are shown more often than they occur.
Tick one outcome: class 1 for active, class 0 for inactive

Example cases with answers are listed next.
CC1(C)CN(c2ccc(-c3ccnc4ncnn34)cc2)C1=O ... class 0
CC(=O)Nc1ccc(OCCC[n+]2cccc(C(=O)[O-])c2)cc1 ... class 0
O=C(Nc1cccnc1)c1ccc(Cl)cc1[N+](=O)[O-] ... class 0
CN1C(=O)/C(=C\c2ccc(-c3ccccc3)o2)SC1=S ... class 0

Please share the test call associated with S=C(Nc1ccc(Br)cc1Cl)NC1CCN(Cc2ccccc2)CC1 . class 0

What do you get for CC(Sc1nnnn1C1CCCCC1)C(=O)O (centres undefined) ? class 0

What do you get for COc1ccc(NC(=O)c2c(SC)nsc2SC)cc1 ? class 0

What do you get for O=C(NNC(=O)c1ccccc1[N+](=O)[O-])Nc1ccccc1C(F)(F)F ? class 0

What do you get for Cc1cc(=O)oc2c1c(C)nn2-c1ccc(Cl)cc1 ? class 0

What do you get for O=c1/c(=C/c2ccc(CNS(=O)(=O)c3ccccc3)o2)sc2n1CCN=2 ? class 1

What do you get for CCCCC(NC(=O)c1cccc(Br)c1)C(=O)O (centres undefined) ? class 0

What do you get for COc1ccc(C/C(N)=N/OC(=O)c2ccco2)cc1OC ? class 0

What do you get for Cc1ccc(C2=NN(C(=O)COc3ncnc4ccccc34)C(c3ccco3)C2)cc1 (centres undefined) ? class 0

What do you get for C=CCN1C(=O)C(O)(CC(=O)c2ccccn2)c2ccccc21 (centres undefined) ? class 0

What do you get for Cc1cc(NC(=O)CSc2nc3c(cc2C#N)CCCCC3)no1 ? class 0

What do you get for CC1CCCCC1NC(=O)CO/N=C/c1ccc(OC(F)F)cc1 (centres undefined) ? class 0

What do you get for CCCC(=O)OCC(=O)Nc1cc(Cl)ccc1[N+](=O)[O-] ? class 0

What do you get for Cc1ccnc(NC(=O)CCCOc2ccccc2)c1 ? class 0

What do you get for COC(=O)c1ccc(CN2CCN(CCCc3ccccc3)C(CCO)C2)cc1 (centres undefined) ? class 0

Just for reference, PubChem BioAssay AID760 is where these values come from.
